- target_desc: rat collagen, acid soluble, type I, rat tail (Upstate 08-115) (rat) (UniProt P02454)
- Sequence (P02454 152-1207, chain 1 of 2): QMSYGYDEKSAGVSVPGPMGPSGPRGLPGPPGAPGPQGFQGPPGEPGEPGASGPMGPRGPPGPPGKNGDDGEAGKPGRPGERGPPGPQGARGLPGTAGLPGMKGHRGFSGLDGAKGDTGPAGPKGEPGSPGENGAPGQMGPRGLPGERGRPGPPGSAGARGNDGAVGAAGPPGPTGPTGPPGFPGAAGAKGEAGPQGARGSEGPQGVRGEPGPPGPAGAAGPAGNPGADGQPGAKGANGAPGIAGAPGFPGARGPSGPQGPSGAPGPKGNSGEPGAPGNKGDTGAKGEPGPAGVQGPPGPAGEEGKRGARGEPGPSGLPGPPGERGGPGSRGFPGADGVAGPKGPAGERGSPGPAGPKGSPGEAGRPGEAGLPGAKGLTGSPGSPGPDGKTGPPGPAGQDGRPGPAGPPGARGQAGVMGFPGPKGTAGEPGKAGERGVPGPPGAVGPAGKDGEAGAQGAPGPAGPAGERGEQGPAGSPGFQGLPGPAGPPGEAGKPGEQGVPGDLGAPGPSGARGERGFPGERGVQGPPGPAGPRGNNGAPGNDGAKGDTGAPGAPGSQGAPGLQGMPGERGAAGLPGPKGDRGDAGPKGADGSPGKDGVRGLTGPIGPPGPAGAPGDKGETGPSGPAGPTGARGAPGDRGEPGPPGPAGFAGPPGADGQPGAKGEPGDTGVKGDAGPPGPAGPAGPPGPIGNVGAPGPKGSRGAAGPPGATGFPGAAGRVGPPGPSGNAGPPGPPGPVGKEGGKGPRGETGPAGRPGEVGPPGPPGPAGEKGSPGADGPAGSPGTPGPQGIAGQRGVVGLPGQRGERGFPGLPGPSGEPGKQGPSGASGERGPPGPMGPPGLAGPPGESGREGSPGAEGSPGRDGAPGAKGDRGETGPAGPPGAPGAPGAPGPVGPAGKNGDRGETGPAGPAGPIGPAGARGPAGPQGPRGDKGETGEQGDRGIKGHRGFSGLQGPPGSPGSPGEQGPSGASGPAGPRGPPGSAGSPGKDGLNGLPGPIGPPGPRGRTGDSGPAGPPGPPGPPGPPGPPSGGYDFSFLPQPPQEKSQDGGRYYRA
- Sequence (P02466 86-1125, chain 2 of 2, further chain): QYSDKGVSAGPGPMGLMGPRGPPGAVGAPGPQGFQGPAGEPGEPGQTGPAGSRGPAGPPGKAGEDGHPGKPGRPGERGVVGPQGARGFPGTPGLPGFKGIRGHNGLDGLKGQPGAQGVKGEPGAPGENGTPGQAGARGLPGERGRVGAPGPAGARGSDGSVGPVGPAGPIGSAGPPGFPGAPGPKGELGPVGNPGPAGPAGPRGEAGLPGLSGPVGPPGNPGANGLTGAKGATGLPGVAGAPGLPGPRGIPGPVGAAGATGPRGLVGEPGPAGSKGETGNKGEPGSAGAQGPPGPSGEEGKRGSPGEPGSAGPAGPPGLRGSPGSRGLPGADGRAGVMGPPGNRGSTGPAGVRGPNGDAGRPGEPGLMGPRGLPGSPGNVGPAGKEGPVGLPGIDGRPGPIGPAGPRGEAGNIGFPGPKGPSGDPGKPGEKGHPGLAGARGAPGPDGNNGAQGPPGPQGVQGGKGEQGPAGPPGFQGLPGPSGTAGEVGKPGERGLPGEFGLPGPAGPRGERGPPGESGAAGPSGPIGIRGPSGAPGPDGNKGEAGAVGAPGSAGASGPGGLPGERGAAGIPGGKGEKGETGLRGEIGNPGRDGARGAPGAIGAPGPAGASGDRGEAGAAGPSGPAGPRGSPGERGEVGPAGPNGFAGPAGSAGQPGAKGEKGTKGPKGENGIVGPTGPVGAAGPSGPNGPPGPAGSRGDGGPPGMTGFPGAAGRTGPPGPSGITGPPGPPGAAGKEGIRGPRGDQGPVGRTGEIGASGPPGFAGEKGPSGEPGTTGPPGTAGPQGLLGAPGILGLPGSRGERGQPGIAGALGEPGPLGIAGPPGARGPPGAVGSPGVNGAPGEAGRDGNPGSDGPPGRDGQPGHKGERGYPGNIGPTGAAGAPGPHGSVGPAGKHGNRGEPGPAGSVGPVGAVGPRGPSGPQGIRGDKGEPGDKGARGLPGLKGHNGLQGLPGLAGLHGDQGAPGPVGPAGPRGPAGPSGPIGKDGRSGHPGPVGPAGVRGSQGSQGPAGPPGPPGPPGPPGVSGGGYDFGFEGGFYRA
- measurement_protocol: dried collagen assay
Bridge positions count the residues as written; N and C are the ends. Square brackets hold non-standard residues; d marks the D form. Primed or numbered codes have the meaning given here. Side chains are listed from the residue outwards. Ends that are not written are not given here. Phe(3,4-(OMe)2) = COc1ccc(C[C@H](N)C(=O)O)cc1OC; Dip = N[C@H](C(=O)O)C(c1ccccc1)c1ccccc1; Phe(4-NH2) = Nc1ccc(C[C@H](N)C(=O)O)cc1; Gd^T(3) = GdDTPA attached via thiourea; d1Nal = N[C@H](Cc1cccc2ccccc12)C(=O)O; Gd^T = not defined here; Gd^T″ = GdDTPA-thiourea
experimental_readout: % bound (%)

Solved cases below.
* QWTCSGDEYTWH[dC]NYE (disulfide 4-13 (inferred); not fully specified (N-terminus); printed as QWTCSGDEYTWHcNYE) [SEQ ID NO 175] | 2
* {Gd^T″}-DWTCS[dS]DEYTWHCNYE (disulfide 4-13 (inferred); not fully specified (C-terminus)) [Compound ID 836] | 8
* {Gd^T(3)}-GQWHCTTRFPHH[d1Nal]CLYG (disulfide 5-14; not fully specified (C-terminus)) [Compound ID 904] | 3

[1] {Gd^T}-DWTCS[dL]DEYTWHCNYE (disulfide 4-13 (inferred); not fully specified (C-terminus); reading uncertain) [Compound ID 847]
[2] {Gd^T″}-GQWHCTTLFPHH[dY]CLYG (disulfide 5-14 (inferred); not fully specified (C-terminus)) [Compound ID 907]
[3] QWTCSG[dD]EYTWHCNYE (disulfide 4-13 (inferred); not fully specified (N-terminus); printed as QWTCSGdEYTWHCNYE) [SEQ ID NO 169]
[4] [dY][dH][dA][dC][dY][dQ][dA]G[dC][dW][dI][dW] (disulfide 4-9 (inferred); not fully specified (C-terminus)) [SEQ ID NO 163]
Prompt: List these items ordered by % bound, big to small. Lab note: final answer is the ordered label list.
Response: 4, 1, 3, 2
(4: 53%, 1: 7%, 3: 4%, 2: 1%)

[A] YHACYQAGCWAW (disulfide 4-9 (inferred)) [SEQ ID NO 137]
[B] {Gd^T″}-GQWHCTTD[Phe(3,4-(OMe)2)]PHHYCLYG (disulfide 5-14 (inferred)) [Compound ID 893]
[C] {Gd^T″}-GK([Gly-Gd^T″])WHCTTYFPHHYCL[Dip]G (disulfide 5-14 (inferred); not fully specified) [Compound ID 967]
Prompt: Arrange the 3 binders by rising % bound, starting with the smallest. Lab note: final answer is the ordered label list.
Response: B, C, A
(B: 2%, C: 4%, A: 7%)

[A] QWTCSGDEYT[dW]HCNYE (disulfide 4-13 (inferred); not fully specified (N-terminus); printed as QWTCSGDEYTwHCNYE) [SEQ ID NO 173]
[B] QWTCSGDE[dY]TWHCNYE (disulfide 4-13 (inferred); not fully specified (N-terminus); printed as QWTCSGDEyTWHCNYE) [SEQ ID NO 171]
Prompt: Among A and B , which shows a numerically higher % bound result? Output the label that corresponds to your choice.
Response: B
(B: 6%, A: 4%)

[P] QWTC[dS]GDEYTWHCNYE (disulfide 4-13 (inferred); not fully specified (N-terminus); printed as QWTCsGDEYTWHCNYE) [SEQ ID NO 168]
[Q] {Gd^T″}-GQWHCTTD[Phe(4-NH2)](Gd^T″)PHHYCLYG (disulfide 5-14 (inferred)) [Compound ID 885]
Prompt: Field: lower recorded % bound (choose P or Q ) Output the label that corresponds to your choice.
Response: P
(P: 2%, Q: 9%)
